Entry source: ChEMBL document CHEMBL3813593

# measured on: Hepatocyte growth factor receptor (Homo sapiens)
# Sequence (P08581 whole entry): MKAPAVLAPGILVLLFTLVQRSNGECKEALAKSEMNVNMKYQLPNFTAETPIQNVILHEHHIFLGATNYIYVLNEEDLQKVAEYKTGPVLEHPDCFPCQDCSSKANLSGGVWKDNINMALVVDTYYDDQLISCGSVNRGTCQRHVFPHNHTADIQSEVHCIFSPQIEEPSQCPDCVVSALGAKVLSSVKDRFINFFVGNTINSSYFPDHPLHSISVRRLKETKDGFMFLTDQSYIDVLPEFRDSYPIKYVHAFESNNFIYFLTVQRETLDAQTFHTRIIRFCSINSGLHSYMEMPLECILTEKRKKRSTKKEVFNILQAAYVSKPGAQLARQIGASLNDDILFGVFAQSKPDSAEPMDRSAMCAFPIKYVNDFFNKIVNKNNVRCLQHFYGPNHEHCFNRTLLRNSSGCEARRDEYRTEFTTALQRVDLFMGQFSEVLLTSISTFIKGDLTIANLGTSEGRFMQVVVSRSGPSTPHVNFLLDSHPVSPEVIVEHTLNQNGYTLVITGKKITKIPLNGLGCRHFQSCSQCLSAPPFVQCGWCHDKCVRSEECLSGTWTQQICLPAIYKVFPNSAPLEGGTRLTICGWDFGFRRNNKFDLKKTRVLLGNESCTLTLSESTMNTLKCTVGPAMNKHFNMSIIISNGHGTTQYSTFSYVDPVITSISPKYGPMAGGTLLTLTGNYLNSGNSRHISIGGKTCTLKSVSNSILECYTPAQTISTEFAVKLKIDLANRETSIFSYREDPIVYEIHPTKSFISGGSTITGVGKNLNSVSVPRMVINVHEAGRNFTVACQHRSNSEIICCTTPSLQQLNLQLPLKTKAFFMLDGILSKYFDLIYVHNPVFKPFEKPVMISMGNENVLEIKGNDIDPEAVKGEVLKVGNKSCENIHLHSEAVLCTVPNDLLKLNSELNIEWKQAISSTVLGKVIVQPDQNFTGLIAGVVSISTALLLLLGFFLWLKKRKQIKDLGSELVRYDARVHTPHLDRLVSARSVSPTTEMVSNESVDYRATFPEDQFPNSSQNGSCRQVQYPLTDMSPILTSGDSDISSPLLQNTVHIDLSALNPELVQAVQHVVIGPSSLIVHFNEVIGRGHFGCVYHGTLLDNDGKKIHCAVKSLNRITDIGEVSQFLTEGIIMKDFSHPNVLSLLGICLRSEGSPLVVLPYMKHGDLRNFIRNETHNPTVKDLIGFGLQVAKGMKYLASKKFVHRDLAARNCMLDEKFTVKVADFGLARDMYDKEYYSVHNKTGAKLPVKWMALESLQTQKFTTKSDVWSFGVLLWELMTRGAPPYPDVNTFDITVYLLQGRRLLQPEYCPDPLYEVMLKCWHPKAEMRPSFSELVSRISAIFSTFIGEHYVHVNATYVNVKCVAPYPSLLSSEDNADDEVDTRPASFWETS
# assay details: Inhibition of recombinant c-Met (unknown origin) using poly (Glu, Tyr) 4:1 as substrate incubated for 60 mins by ELISA
property label: IC50

query: Entry "CNc1ncnc(Oc2ccc(NC(=O)C3(C(=O)Nc4ccc(F)cc4)CC3)cc2F)c1/C=N/OC" : reported IC50 = ?
result: > 10 µM

====

# assay details: Lipophilicity, log P of compound by shake flask method
# Format: physicochemical
# test context: octanol/water; read-out: logP
# label = Yes if logP < 4 else No

query: hey, is logP for "Nc1ncnc(Oc2ccc(NC(=O)C3(C(=O)Nc4ccc(F)cc4)CC3)cc2F)c1/C=N/OC1CCCCC1" lower than 4 or not?
result: No

query: hey, is logP for "Nc1ncnc(Oc2ccc(NC(=O)C3(C(=O)Nc4ccc(F)cc4)CC3)cc2F)c1/C=N/O" lower than 4 or not?
result: Yes

query: hey, is logP for CC(O)CO/N=C/c1c(N)ncnc1Oc1ccc(NC(=O)C2(C(=O)Nc3ccc(F)cc3)CC2)cc1F (configuration not stated) lower than 4 or not?
result: Yes

query: hey, is logP for "Nc1ncnc(Oc2ccc(NC(=O)C3(C(=O)Nc4ccc(F)cc4)CC3)cc2F)c1/C=N/OCCCN1CCOCC1" lower than 4 or not?
result: Yes

query: hey, is logP for COc1cc2c(Oc3ccc(NC(=O)C4(C(=O)Nc5ccc(F)cc5)CC4)cc3F)ccnc2cc1OCCCN1CCOCC1 [FORETINIB] lower than 4 or not?
result: No

query: hey, is logP for "CO/N=C/c1c(N)ncnc1Oc1ccc(NC(=O)C2(C(=O)Nc3ccc(F)cc3)CC2)cc1F" lower than 4 or not?
result: Yes

query: hey, is logP for "C=CCO/N=C/c1c(N)ncnc1Oc1ccc(NC(=O)C2(C(=O)Nc3ccc(F)cc3)CC2)cc1F" lower than 4 or not?
result: Yes

query: hey, is logP for "Nc1ncnc(Oc2ccc(NC(=O)C3(C(=O)Nc4ccc(F)cc4)CC3)cc2F)c1/C=N/OCCN1CCCC1" lower than 4 or not?
result: Yes

query: hey, is logP for "Nc1ncnc(Oc2ccc(NC(=O)C3(C(=O)Nc4ccc(F)cc4)CC3)cc2F)c1/C=N/OCCCO" lower than 4 or not?
result: Yes

query: hey, is logP for "CNc1ncnc(Oc2ccc(NC(=O)C3(C(=O)Nc4ccc(F)cc4)CC3)cc2F)c1/C=N/OC" lower than 4 or not?
result: Yes

query: hey, is logP for "CC(C)(C)OC(=O)N/N=C/c1c(N)ncnc1Oc1ccc(NC(=O)C2(C(=O)Nc3ccc(F)cc3)CC2)cc1F" lower than 4 or not?
result: Yes

query: hey, is logP for "Nc1ncnc(Oc2ccc(NC(=O)C3(C(=O)Nc4ccc(F)cc4)CC3)cc2F)c1/C=N/OCc1ccccc1" lower than 4 or not?
result: No

query: hey, is logP for "CN(C)CCCO/N=C/c1c(N)ncnc1Oc1ccc(NC(=O)C2(C(=O)Nc3ccc(F)cc3)CC2)cc1F" lower than 4 or not?
result: Yes

query: hey, is logP for "Nc1ncnc(Oc2ccc(NC(=O)C3(C(=O)Nc4ccc(F)cc4)CC3)cc2F)c1/C=N/OCC(=O)N1CCOCC1" lower than 4 or not?
result: Yes

query: hey, is logP for "Nc1ncnc(Oc2ccc(NC(=O)C3(C(=O)Nc4ccc(F)cc4)CC3)cc2F)c1/C=N/OCCCN1CCCC1" lower than 4 or not?
result: Yes

query: hey, is logP for "CCOC(=O)CO/N=C/c1c(N)ncnc1Oc1ccc(NC(=O)C2(C(=O)Nc3ccc(F)cc3)CC2)cc1F" lower than 4 or not?
result: Yes

query: hey, is logP for "CCCCO/N=C/c1c(N)ncnc1Oc1ccc(NC(=O)C2(C(=O)Nc3ccc(F)cc3)CC2)cc1F" lower than 4 or not?
result: No

====

# measured on: Vascular endothelial growth factor receptor 2 (Homo sapiens)
# Sequence (P35968 whole entry): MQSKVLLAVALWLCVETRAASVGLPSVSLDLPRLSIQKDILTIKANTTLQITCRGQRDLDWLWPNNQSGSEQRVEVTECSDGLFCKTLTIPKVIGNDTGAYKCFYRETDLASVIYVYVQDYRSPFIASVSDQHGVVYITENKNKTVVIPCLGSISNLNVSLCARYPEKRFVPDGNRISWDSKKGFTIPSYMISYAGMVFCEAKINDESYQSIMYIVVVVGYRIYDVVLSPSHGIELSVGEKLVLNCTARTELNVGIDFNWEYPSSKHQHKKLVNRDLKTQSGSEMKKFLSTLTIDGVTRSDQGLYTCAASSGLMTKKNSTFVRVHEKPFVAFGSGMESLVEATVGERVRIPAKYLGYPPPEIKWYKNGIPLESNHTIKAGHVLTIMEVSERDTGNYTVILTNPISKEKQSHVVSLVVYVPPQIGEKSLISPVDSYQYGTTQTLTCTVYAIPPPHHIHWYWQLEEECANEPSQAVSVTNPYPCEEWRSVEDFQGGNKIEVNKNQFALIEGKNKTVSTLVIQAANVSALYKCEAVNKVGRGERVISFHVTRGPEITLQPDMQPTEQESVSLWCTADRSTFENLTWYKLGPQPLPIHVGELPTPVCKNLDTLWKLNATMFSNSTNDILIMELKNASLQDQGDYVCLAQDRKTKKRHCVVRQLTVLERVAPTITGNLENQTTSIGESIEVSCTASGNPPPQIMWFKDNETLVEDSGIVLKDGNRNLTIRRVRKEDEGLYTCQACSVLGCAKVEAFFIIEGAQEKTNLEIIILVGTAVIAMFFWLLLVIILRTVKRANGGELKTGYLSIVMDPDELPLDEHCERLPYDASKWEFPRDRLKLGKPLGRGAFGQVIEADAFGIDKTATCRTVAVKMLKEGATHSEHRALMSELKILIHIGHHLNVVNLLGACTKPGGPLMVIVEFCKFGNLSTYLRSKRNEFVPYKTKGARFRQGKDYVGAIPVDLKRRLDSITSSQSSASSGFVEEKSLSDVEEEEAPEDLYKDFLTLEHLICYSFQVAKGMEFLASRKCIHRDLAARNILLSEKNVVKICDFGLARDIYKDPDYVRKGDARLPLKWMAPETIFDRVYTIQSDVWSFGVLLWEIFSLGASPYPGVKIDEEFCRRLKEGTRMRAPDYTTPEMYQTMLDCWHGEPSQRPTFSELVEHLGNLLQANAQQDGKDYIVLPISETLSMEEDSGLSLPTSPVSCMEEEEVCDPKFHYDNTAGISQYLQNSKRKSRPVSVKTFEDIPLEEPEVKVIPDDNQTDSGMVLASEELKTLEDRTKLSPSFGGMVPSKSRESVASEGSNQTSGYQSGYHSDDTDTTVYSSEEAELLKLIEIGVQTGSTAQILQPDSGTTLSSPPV
# assay details: Inhibition of recombinant VEGFR2 (unknown origin) using poly (Glu, Tyr) 4:1 as substrate incubated for 60 mins by ELISA
property label: IC50

query: Please tell me: IC50 of "CNc1ncnc(Oc2ccc(NC(=O)C3(C(=O)Nc4ccc(F)cc4)CC3)cc2F)c1/C=N/OC" , system Vascular endothelial growth factor receptor 2 (Homo sapiens)?
result: > 10 µM

====

# assay details: Lipophilicity, log P of compound by shake flask method
# Type: physicochemical
# test context: octanol/water; read-out: logP
property label: logP
Reply with the value as a number alone.

query: Entry "COCCCO/N=C/c1c(N)ncnc1Oc1ccc(NC(=O)C2(C(=O)Nc3ccc(F)cc3)CC2)cc1F" : reported logP = ?
result: 3.18

query: Entry Nc1ncnc(Oc2ccc(NC(=O)C3(C(=O)Nc4ccc(F)cc4)CC3)cc2F)c1/C=N/OCC(O)CN1CCOCC1 (stereo not drawn) : reported logP = ?
result: 2.02

query: Entry "CCO/N=C/c1c(N)ncnc1Oc1ccc(NC(=O)C2(C(=O)Nc3ccc(F)cc3)CC2)cc1F" : reported logP = ?
result: 3.41

====

# measured on: Vascular endothelial growth factor receptor 2 (Homo sapiens)
# assay details: Inhibition of VEGFR2 (unknown origin)
property label: IC50 (nM)
Numbers only here, please. The scale is nM.

query: Entry "CO/N=C/c1c(N)ncnc1Oc1ccc2[nH]ccc2c1" : reported IC50 = ?
result: 146

====

I'd be grateful if you could share measured logP for these entries.
# assay details: Lipophilicity, log P of compound by shake flask method
# Assay type: physicochemical
# test context: octanol/water; read-out: logP
Reply with the value as a number alone.

query: Entry "N/N=C/c1c(N)ncnc1Oc1ccc(NC(=O)C2(C(=O)Nc3ccc(F)cc3)CC2)cc1F" : reported logP = ?
result: 2.25

query: Entry "Nc1ncnc(Oc2ccc(NC(=O)C3(C(=O)Nc4ccc(F)cc4)CC3)cc2F)c1/C=N/OC1CCCC1" : reported logP = ?
result: 4.27

query: Entry "C#CCO/N=C/c1c(N)ncnc1Oc1ccc(NC(=O)C2(C(=O)Nc3ccc(F)cc3)CC2)cc1F" : reported logP = ?
result: 3.34

query: Entry "Nc1ncnc(Oc2ccc(NC(=O)C3(C(=O)Nc4ccc(F)cc4)CC3)cc2F)c1/C=N/OCCO" : reported logP = ?
result: 2.37
